- TEST DETAILS: Metabolic stability in human liver microsomes after 1 hr
- Assay type: ADME, Microsome
- ASSAY CONTEXT: read-out: Stability
PROPERTY LABEL: remaining at 1 h (%)
Number in %, nothing else.

IN: For the compound shown here, `OCCN1CCN(c2nc(-c3ccncc3)cnc2N2CCCC2)CC1` , give the reported remaining at 1 h.
OUT: 100

---

Measured IC50, listed per entry.
- EXPERIMENTAL SYSTEM: Rho-associated protein kinase 2 (Homo sapiens, UniProt O75116)
- Sequence (O75116 whole entry): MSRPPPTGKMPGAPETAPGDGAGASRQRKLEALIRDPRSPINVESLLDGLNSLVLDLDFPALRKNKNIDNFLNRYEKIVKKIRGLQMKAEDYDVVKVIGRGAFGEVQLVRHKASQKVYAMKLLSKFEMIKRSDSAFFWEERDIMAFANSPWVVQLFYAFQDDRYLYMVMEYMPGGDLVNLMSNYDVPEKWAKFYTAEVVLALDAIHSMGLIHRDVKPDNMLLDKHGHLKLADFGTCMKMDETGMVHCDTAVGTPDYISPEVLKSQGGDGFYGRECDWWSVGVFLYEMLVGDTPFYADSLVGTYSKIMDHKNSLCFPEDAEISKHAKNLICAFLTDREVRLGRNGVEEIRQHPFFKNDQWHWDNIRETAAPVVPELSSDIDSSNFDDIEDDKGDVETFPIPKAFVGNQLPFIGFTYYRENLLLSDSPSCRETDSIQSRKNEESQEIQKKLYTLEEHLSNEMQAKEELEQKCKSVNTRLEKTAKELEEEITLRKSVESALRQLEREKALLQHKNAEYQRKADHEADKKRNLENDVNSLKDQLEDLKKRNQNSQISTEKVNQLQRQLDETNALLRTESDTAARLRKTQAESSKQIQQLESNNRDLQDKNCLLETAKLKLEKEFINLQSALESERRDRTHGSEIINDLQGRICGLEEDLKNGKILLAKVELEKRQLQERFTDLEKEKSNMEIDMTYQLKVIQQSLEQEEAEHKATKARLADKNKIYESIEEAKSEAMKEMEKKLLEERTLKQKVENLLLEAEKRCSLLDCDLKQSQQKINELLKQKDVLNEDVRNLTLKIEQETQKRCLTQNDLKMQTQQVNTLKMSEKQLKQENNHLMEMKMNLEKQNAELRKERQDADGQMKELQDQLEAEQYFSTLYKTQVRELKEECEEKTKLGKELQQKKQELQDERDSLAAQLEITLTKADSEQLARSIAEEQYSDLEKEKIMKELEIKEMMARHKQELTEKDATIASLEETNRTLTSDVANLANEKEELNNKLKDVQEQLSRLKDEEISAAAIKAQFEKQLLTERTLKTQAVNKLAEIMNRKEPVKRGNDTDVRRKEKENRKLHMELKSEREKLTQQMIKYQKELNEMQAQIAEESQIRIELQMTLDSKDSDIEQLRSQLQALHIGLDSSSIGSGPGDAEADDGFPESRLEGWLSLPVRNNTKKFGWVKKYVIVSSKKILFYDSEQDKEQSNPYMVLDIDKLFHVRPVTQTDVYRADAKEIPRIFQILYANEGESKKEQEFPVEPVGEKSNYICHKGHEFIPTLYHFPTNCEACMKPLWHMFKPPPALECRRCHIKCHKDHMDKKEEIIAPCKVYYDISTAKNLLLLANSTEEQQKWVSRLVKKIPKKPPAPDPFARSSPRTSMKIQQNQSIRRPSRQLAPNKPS
- TEST DETAILS: Inhibition of human recombinant ROCK2
Number in nM, nothing else.

Worked examples, 5 compounds total:
1. NC1CCN(c2nc(-c3ccnc4[nH]ccc34)cnc2N2CCCC2)CC1 89
2. CN1CCCN(c2nc(-c3cccc4[nH]ncc34)cnc2N)CC1 2500
3. CN1CCCN(c2nc(-c3ccncc3)cnc2N)CC1 2500
4. CN(C)c1ncc(-c2ccncc2)nc1N1CCN(CCO)CC1 300
5. CN1CCCN(c2nc(-c3ccncc3)cnc2N2CCCCC2)CC1 560

IN: For the compound shown here, `Nc1ncc(-c2ccncc2)nc1N1CCN(CCO)CC1` , give the reported IC50.
OUT: 2500

IN: For the compound shown here, `CN1CCCN(c2nc(-c3ccc4[nH]ncc4c3)cnc2N)CC1` , give the reported IC50.
OUT: 950

IN: For the compound shown here, `CN1CCCN(c2nc(-c3ccncc3)cnc2N(C)C)CC1` , give the reported IC50.
OUT: 1700

---

- EXPERIMENTAL SYSTEM: Rho-associated protein kinase 1 (Homo sapiens, UniProt Q13464)
- Sequence (Q13464 whole entry): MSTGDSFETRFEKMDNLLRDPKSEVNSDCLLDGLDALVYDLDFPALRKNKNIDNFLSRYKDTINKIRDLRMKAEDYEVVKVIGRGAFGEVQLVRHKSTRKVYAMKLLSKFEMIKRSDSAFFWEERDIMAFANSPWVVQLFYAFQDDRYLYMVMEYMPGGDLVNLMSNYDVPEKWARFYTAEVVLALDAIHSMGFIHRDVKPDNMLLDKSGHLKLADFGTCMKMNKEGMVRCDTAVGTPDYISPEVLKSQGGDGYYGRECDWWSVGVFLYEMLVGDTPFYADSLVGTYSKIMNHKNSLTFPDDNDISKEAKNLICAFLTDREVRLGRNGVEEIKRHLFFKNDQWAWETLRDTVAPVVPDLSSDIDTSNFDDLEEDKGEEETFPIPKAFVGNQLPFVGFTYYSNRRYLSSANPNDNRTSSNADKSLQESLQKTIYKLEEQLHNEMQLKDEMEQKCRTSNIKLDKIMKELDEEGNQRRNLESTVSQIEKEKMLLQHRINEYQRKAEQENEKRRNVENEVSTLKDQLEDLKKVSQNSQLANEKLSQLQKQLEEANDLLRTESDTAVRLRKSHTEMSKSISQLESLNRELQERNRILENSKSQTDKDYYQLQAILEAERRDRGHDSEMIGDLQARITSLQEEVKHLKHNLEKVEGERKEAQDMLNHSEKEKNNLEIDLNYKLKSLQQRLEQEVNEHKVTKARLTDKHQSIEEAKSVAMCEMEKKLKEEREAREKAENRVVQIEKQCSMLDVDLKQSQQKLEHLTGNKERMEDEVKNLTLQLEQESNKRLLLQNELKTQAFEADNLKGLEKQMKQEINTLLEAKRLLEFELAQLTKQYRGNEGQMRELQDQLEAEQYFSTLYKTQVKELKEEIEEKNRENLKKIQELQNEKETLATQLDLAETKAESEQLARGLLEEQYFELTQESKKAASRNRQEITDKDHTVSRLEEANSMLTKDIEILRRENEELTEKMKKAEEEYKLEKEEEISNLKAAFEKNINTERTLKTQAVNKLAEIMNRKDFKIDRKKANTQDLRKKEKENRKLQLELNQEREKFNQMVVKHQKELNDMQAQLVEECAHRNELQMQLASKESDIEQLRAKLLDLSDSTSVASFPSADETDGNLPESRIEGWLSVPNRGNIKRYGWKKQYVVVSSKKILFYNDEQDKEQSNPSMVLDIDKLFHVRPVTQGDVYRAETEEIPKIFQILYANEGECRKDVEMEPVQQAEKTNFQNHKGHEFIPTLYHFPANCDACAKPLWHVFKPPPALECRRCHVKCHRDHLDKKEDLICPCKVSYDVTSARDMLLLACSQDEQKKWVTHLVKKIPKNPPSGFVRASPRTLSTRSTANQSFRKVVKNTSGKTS
- TEST DETAILS: Inhibition of human recombinant ROCK1
Under this convention, Fulfilled denotes IC50 strictly below 1000 nM and Not fulfilled denotes IC50 at or above 1000 nM.

1. CN1CCCN(c2nc(-c3ccncc3)cnc2N)CC1 Not fulfilled
2. CNC1CCN(c2nc(-c3ccncc3)cnc2N2CCCC2)CC1 Not fulfilled
3. NC1CCN(c2nc(-c3ccnc4[nH]ccc34)cnc2N2CCCC2)CC1 Fulfilled
4. CN(C)c1ncc(-c2ccncc2)nc1N1CCN(CCO)CC1 Not fulfilled

IN: Item `c1cc(-c2cnc(N3CCCC3)c(N3CCNCC3)n2)c2cc[nH]c2n1` : IC50 beneath 1000 nM, strictly?
OUT: Fulfilled

---

- EXPERIMENTAL SYSTEM: Rho-associated protein kinase 2 (Homo sapiens)
- TEST DETAILS: Inhibition of human recombinant ROCK2
PROPERTY LABEL: pIC50
When answering, recall that pIC50 equals minus log10 of the concentration in mol/L, and write that number alone.

1. CN1CCCN(c2nc(-c3cc[nH]n3)cnc2N)CC1 5.54

IN: For the compound shown here, `CN1CCCN(c2nc(-c3ccncc3)cnc2N2CCCC2)CC1` , give the reported pIC50.
OUT: 6.48

IN: For the compound shown here, `c1cc(-c2cnc(N3CCCC3)c(N3CCCNCC3)n2)ccn1` , give the reported pIC50.
OUT: 7.41

IN: For the compound shown here, `c1cc(-c2cnc(N3CCCC3)c(N3CCNCC3)n2)c2cc[nH]c2n1` , give the reported pIC50.
OUT: 7.77

IN: For the compound shown here, `CNc1ncc(-c2ccncc2)nc1N1CCCN(C)CC1` , give the reported pIC50.
OUT: 5.62

IN: For the compound shown here, `NCC1CCN(c2nc(-c3ccncc3)cnc2N2CCCC2)CC1` , give the reported pIC50.
OUT: 7.55

IN: For the compound shown here, `OCCN1CCN(c2nc(-c3ccncc3)cnc2N2CCCC2)CC1` , give the reported pIC50.
OUT: 7.11

IN: For the compound shown here, `CN1CCCN(c2nc(-c3ccncc3)cnc2NCCO)CC1` , give the reported pIC50.
OUT: 5.52

IN: For the compound shown here, `CNCC1CCN(c2nc(-c3ccncc3)cnc2N2CCCC2)CC1` , give the reported pIC50.
OUT: 7.31

IN: For the compound shown here, `NC1CCN(c2nc(-c3ccncc3)cnc2N2CCCC2)CC1` , give the reported pIC50.
OUT: 7.21

IN: For the compound shown here, `CN1CCCN(c2nc(-c3ccnc(N)c3)cnc2N)CC1` , give the reported pIC50.
OUT: 4.28

IN: For the compound shown here, `CNC1CCN(c2nc(-c3ccncc3)cnc2N2CCCC2)CC1` , give the reported pIC50.
OUT: 6.60

IN: For the compound shown here, `COCCNc1ncc(-c2ccncc2)nc1N1CCCN(C)CC1` , give the reported pIC50.
OUT: 4.28

IN: For the compound shown here, `CN1CCCN(c2nc(-c3ccnc4[nH]ccc34)cnc2N)CC1` , give the reported pIC50.
OUT: 6.28

IN: For the compound shown here, `Cc1cnccc1-c1cnc(N)c(N2CCCN(C)CC2)n1` , give the reported pIC50.
OUT: 4.24

IN: For the compound shown here, `COCCN(C)c1ncc(-c2ccncc2)nc1N1CCCN(C)CC1` , give the reported pIC50.
OUT: 4.35

IN: For the compound shown here, `CCN(CC)c1ncc(-c2ccncc2)nc1N1CCCN(C)CC1` , give the reported pIC50.
OUT: 5.17

IN: For the compound shown here, `c1cc(-c2cnc(N3CCCC3)c(N3CCNCC3)n2)ccn1` , give the reported pIC50.
OUT: 7.21

IN: For the compound shown here, `CN1CCCN(c2nc(-c3ccncc3)cnc2N2CCOCC2)CC1` , give the reported pIC50.
OUT: 5.20

FYI, the data here is from ChEMBL document CHEMBL1157736.
